Value source: the RNAGym collection of RNA variant scans (doi:10.7554/elife.80360)

B1: CPEB3 Ribozyme (parent)
chain: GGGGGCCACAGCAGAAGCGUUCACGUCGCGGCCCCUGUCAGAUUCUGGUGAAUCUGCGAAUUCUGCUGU

# Variants of: B1
# ASSAY_METHOD_TEXT: self-cleavage, relative activity (ratio to wild type); higher = more cleavage; co-transcriptional
PARAMETER_MEASURED: self-cleavage

Example results:
A8C C34G	0.859
U53A U69G	1.05
C34A G47U	0.914

Could you share which self-cleavage value was measured for G17A G68U ?
0.751

Quick check: self-cleavage of G3A G68C ?
0.764

Form field: reported self-cleavage of C7U A10G
0.947

Quick one: self-cleavage of G41U G48U ?
0.99

Requested read-out: self-cleavage. Entry: C6A C54U
0.67

What self-cleavage value was documented for this variant, A42U U62A ?
0.809

Need self-cleavage of A16C C32G , thanks.
0.136

Name the reported self-cleavage value associated with the variant G11U U67G
0.949

Which measured self-cleavage value corresponds to G19A U38A ?
0.165

Recorded self-cleavage of U38C G47U , please.
0.925
